Test system: MBLs (SPM-1, IMP-1, BcII, VIM-2, NDM-1)
Format: biochemical
Details: at 100 µM
Procedure: Inhibition analyses against bacterial MBLs and SBLs were performed as described previously.[22], [24], [26] Residual enzyme activities were determined for a range of inhibitor concentrations. Non-linear regression fitting of IC50 curves was carried out using a three-parameter dose–response curve in GraphPad Prism. Errors in IC50 values are expressed as: σ(logIC50)/logIC50×IC50 […]
TEST READOUT: MBL inhibition, result in words

Solved cases (5 shown):
O=C(O)C(O)Cc1ccccc1 (stereo not drawn) [3-Phenyllactic acid, reference compound] : inactive
O=C(O)/C(O)=C/c1ccc(F)cc1 : near inactive
CC1=N/C(=C\c2ccc(F)cc2)C(=O)O1 : near inactive
O=P(O)(O)C(O)c1ccc(Br)cc1F (stereo not drawn) : inactive
O=C(O)C(O)c1ccccc1 (stereo not drawn) [Mandelic acid, reference compound] : inactive

Output measured MBL inhibition, result in words for this item: O=P(O)(O)C(S)c1ccc(Br)cc1F (stereo not drawn) inactive

---

Target: BcII (Bacillus cereus)
Construct: made in house
Assay: biochemical
Details: enethiols 6 assayed as sodium salts; 10 min incubation; read-out: IC50 BcII (converted)
TEST READOUT: IC50 (nM)
Give a bare numeral; the unit nM is implied.

Cc1ccc(/C=C(\S)C(=O)O)cc1 : 700

For the molecule O=C(O)/C(S)=C/c1cccc(Cl)c1Cl , report IC50. 1000

Given O=C(O)/C(S)=C/c1csc2ccccc12 , respond with its IC50. 3100

Return value of IC50 for input O=C(O)/C(S)=C/c1cc(Cl)ccc1Cl , no commentary. 1600

Entry O=C(O)CN1C(=O)/C(=C/c2csc3ccccc23)SC1=S needs its IC50 filled in; supply it. 21700

Find the measured IC50 of O=C(O)/C(S)=C/c1c(F)cccc1Cl and report it. 60

---

In this section, each of the molecules is paired with its reported IC50.
Biological target: VIM-2 (Escherichia coli, UniProt Q5U7L7)
Construct: made in house
Assay: biochemical
Conditions: enethiols 6 assayed as sodium salts; 10 min incubation; read-out: IC50 VIM-2 (converted)
Report the figure in µM without appending any unit label.

O=C(O)CN1C(=O)/C(=C/c2c(F)cccc2Cl)SC1=S [Compound 3j] : 9.8
CN1CCN(NC(=O)CN2C(=O)/C(=C/c3c(F)cccc3F)SC2=S)CC1 [Compound 5p] : 41.7
CN1CCN(NC(=O)CN2C(=O)/C(=C/c3ccccc3Cl)SC2=S)CC1 [Compound 5g] : 2

Report IC50 for CN1CCN(NC(=O)CN2C(=O)/C(=C/c3ccc(Br)cc3)SC2=S)CC1 [Compound 5d] 44

Recall and state the measured IC50 for O=C(O)/C(S)=C/c1ccccc1 [Compound 6a] . 0.4

Identify measured IC50 associated with O=C(O)/C(S)=C/c1ccccc1Br [Compound 6h] 2.7

Complete the entry with IC50 for CN1CCN(NC(=O)CN2C(=O)S/C(=C\c3c(Cl)ccc(Cl)c3Cl)C2=O)CC1 [Compound 10] 0.2

For O=C(O)CN1C(=O)/C(=C/c2c(F)cccc2F)SC1=S [Compound 3p] , write its IC50. 6.8

---

The entries below come with measured log10 of IC50 values attached.
Biological target: SPM-1 (Pseudomonas aeruginosa)
Assay: SPM-1 inhibition, fluorogenic cephalosporin (FC5) hydrolysis
Format: biochemical
Conditions: enethiols 6 assayed as sodium salts; 10 min incubation; read-out: IC50 SPM-1 (converted)
The figures below represent log10 of IC50, where IC50 is stated in nM.

Worked examples, 4 compounds total:
O=C(O)CN1C(=O)/C(=C/c2cccc(Cl)c2Cl)SC1=S : 3.00
O=C(O)/C(S)=C/c1ccccc1Br : 3.54
CN1CCN(NC(=O)CN2C(=O)/C(=C/c3c(Cl)ccc(Cl)c3Cl)SC2=S)CC1 [ML302, reference compound] : 2.00
Cc1ccc(/C=C(\S)C(=O)O)cc1 : 2.48

Proceeding to the next compound to report its log10 of IC50.
State its log10 of IC50: O=C(O)CN1C(=O)/C(=C/c2cc(Cl)ccc2Cl)SC1=S 4.22

---

Target: SPM-1 (Pseudomonas aeruginosa, UniProt Q8G9Q0)
Sequence (Q8G9Q0 entry or part of it): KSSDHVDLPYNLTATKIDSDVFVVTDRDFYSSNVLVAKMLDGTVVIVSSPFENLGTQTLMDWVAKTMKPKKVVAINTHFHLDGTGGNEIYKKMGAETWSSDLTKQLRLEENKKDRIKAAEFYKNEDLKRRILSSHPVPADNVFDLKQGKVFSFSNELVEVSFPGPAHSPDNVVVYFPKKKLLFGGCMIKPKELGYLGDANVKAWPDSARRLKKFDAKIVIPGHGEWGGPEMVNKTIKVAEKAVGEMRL
Experiment: SPM-1 inhibition, fluorogenic cephalosporin (FC5) hydrolysis
Type: biochemical
Conditions: enethiols 6 assayed as sodium salts; 10 min incubation; read-out: IC50 SPM-1 (converted)
TEST READOUT: IC50 (nM)
Just the number in nM, nothing appended.

Examples from the recorded data:
O=C(O)CN1C(=O)/C(=C/c2c(F)cccc2Cl)SC1=S [Compound 3j] : 1200
O=C(O)/C(S)=C/c1ccccc1Cl [Compound 6g] : 100
CN1CCN(NC(=O)CN2C(=O)/C(=C/c3ccccc3Cl)SC2=S)CC1 [Compound 5g] : 9800

We next turn to a different molecule, shown below.
Identify the reported IC50 for the following entry. CN1CCN(NC(=O)CN2C(=O)/C(=C/c3c(F)cccc3F)SC2=S)CC1 [Compound 5p] 1300

---

Let's look at some molecules and their measured IC50.
Target: SPM-1 (Pseudomonas aeruginosa, UniProt Q8G9Q0)
Test: SPM-1 inhibition, fluorogenic cephalosporin (FC5) hydrolysis
Type: biochemical
Details: enethiols 6 assayed as sodium salts; 10 min incubation; read-out: IC50 SPM-1 (converted)

# count of solved cases: 5
O=C(O)CN1C(=O)/C(=C/c2csc3ccccc23)SC1=S : 13900 nM
O=C(O)CN1C(=O)/C(=C/c2ccc(Br)cc2)SC1=S : 39700 nM
Cc1ccc(/C=C2\SC(=S)N(CC(=O)O)C2=O)cc1 : > 50000 nM
O=C(O)CN1C(=O)/C(=C/c2ccc(F)cc2)SC1=S : > 50000 nM
O=C(O)CN1C(=O)/C(=C/c2c(Cl)ccc(Cl)c2Cl)SC1=S [ML302A] : 4800 nM

Consider the molecule O=C(O)CN1C(=O)/C(=C/c2c(F)ccc(F)c2F)SC1=S and give its recorded IC50. 8800 nM

# return recorded IC50 for entry Cc1cccc(C)c1/C=C(\S)C(=O)O 20 nM

Given O=C(O)CN1C(=O)/C(=C/c2ccccc2I)SC1=S , respond with its IC50. 2000 nM

Supply reported IC50 belonging to this molecule: O=C(O)/C(S)=C/c1cccc(Cl)c1Cl 200 nM

Name the recorded IC50 of the item O=C(O)/C(S)=C/c1ccc(Br)cc1 in your answer. 2300 nM

---

Target: BcII (Bacillus cereus, UniProt P04190)
Construct: made in house
Sequence (P04190 31-257): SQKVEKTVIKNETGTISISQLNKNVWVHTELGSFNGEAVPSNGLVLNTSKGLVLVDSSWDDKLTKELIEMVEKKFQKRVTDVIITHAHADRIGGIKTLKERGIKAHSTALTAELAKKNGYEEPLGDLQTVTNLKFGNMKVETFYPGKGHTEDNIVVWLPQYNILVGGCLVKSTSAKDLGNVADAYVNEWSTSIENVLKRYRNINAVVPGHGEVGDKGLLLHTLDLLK
Assay: biochemical
Conditions: Table 2; read-out: IC50 versus BcII
Items are presented alongside their recorded pIC50.
Hey, just a heads up that pIC50 is the negative log base 10 of the concentration in molar.

O=C(O)C(S)Cc1ccccc1 (stereo not shown) [Compound 13b] : 5.85

Look up BcII (Bacillus cereus, UniProt P04190) data: pIC50 of O=C(O)/C(S)=C/c1ccccc1 , then report it. 6.15

---

# Lookup of reported IC50 keyed by entry
Molecular target: VIM-2 (Escherichia coli)
Construct: made in house
Experiment: biochemical
Conditions: enethiols 6 assayed as sodium salts; 10 min incubation; read-out: IC50 VIM-2 (converted)
Express it in µM; write the number only.

Would you please look over these solved cases?
COc1ccc(/C=C(\S)C(=O)O)cc1 : 0.4
O=C(O)/C(S)=C/c1c(F)cccc1Cl : 0.05
O=C(O)/C(S)=C/c1c2ccccc2cc2ccccc12 : 0.05
O=C(O)CN1C(=O)/C(=C/c2ccc(F)cc2)SC1=S : 34.5

Give a short answer stating reported IC50 for O=C(O)/C(S)=C/c1ccccc1Cc1ccc2ccccc2c1 . 0.1

State its IC50: O=C(O)CN1C(=O)/C(=C/c2c(Cl)cccc2Cl)SC1=S 0.6

Consider the compound O=C(O)/C(S)=C/c1cc(Cl)ccc1Cl and give its recorded IC50. 1.5

Please supply the value of reported IC50 for the item Cc1cccc(C)c1/C=C(\S)C(=O)O 0.07

Give recorded IC50. O=C(O)CN1C(=O)/C(=C/c2c(Cl)ccc(Cl)c2Cl)SC1=S [ML302A] 3.6

---

Target: CphA (Aeromonas hydrophila)
Construct: made in house
Sequence (P26918 28-254): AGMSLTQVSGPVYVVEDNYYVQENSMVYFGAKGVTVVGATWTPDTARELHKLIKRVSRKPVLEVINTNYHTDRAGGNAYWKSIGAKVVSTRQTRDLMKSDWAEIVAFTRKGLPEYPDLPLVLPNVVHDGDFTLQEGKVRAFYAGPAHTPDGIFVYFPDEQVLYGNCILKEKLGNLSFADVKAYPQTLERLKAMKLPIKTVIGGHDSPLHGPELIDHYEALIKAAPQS
Assay: CphA (subclass B2 MBL) inhibition
Type: biochemical
Conditions: read-out: IC50 CphA
TEST READOUT: pIC50
Give only the number. pIC50 is defined as minus log10 of concentration in molar units.

Tell me measured pIC50 for O=C(O)/C(S)=C/c1c(Cl)ccc(Cl)c1Cl [ML302F, reference compound] please. 6.70

---

Biological target: IMP-1 (Serratia marcescens)
Construct: made in house
Sequence (P52699 19-246, looked up, species assumed): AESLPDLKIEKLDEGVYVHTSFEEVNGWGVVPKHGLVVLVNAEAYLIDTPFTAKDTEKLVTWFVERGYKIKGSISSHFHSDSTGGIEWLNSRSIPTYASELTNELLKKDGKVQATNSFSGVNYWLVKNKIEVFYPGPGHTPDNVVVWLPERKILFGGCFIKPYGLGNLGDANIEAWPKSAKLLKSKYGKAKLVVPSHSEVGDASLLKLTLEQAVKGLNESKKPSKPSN
Experiment: IMP-1 inhibition, fluorogenic cephalosporin (FC5) hydrolysis
Type: biochemical
Settings: Table 2; read-out: IC50 versus IMP-1
TEST READOUT: IC50

Quote IMP-1 (Serratia marcescens) IC50 for entry O=C(O)C(S)Cc1ccccc1 (stereo not shown) [Compound 13b] . 50 nM
